# target_or_system: JUNB;JUN (Homo sapiens;Homo sapiens, UniProt P17275;P05412 259-332;243-316, |)
# Sequence (P05412 other isoform, or with tags, fused parts or gaps |): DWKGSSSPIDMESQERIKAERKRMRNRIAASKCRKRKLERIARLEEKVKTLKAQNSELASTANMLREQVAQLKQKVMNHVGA
# procedure_text: SELEX-seq (CSI, HT-SELEX, round 3); SELEX-seq: 1x PBS (10 mM phosphate, 137 mM NaCl, 2.7 mM KCl) pH 7.6, 2.5 mM DTT, 50 ng/ul poly dI-dC, 0.1% BSA, 50 nM biotinylated bZIP (1:3 with partner for heterodimers), 100 nM library, room temperature, 1 h, 3 rounds; high values mean tight binding
# condition_set: protein: recombinant;recombinant; copies: 1;1; dsDNA, one strand shown
measured_property: binding signal

residue_sequence	result
ATGACGTAAT	0.0997 relative CSI intensity (max = 1)
CCTGACGTCA	0.0172 relative CSI intensity (max = 1)
ATGATGCAAT	0.0548 relative CSI intensity (max = 1)
ATGACGTCAT	0.769 relative CSI intensity (max = 1)

###

List of binding signal values.
# target_or_system: FOSL1;CEBPA (Homo sapiens;Homo sapiens, UniProt P15407;P49715 96-169;273-345, |)
# Sequence (P15407 other isoform, or with tags, fused parts or gaps |, chain 1 of 2): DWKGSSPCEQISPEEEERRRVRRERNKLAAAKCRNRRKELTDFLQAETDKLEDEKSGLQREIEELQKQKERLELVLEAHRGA
# Sequence (P49715 other isoform, or with tags, fused parts or gaps |, chain 2 of 2): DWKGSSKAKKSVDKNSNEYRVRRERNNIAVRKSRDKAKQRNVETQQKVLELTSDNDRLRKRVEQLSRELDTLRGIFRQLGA
# procedure_text: SELEX-seq (CSI, HT-SELEX, round 3); SELEX-seq: 1x PBS (10 mM phosphate, 137 mM NaCl, 2.7 mM KCl) pH 7.6, 2.5 mM DTT, 50 ng/ul poly dI-dC, 0.1% BSA, 50 nM biotinylated bZIP (1:3 with partner for heterodimers), 100 nM library, room temperature, 1 h, 3 rounds; high values mean tight binding
# condition_set: protein: recombinant;recombinant; copies: 1;1; dsDNA, one strand shown

residue_sequence	target_or_system	binding signal
ATGATGCAAT	FOSL1;CEBPA (Homo sapiens;Homo sapiens, UniProt P15407;P49715 96-169;273-345, |)	0.368 relative CSI intensity (max = 1)
ATGACGGAAT	FOSL1;CEBPA (Homo sapiens;Homo sapiens, UniProt P15407;P49715 96-169;273-345, |)	0.00381 relative CSI intensity (max = 1)
ATGACGTAAT	FOSL1;CEBPA (Homo sapiens;Homo sapiens, UniProt P15407;P49715 96-169;273-345, |)	0.208 relative CSI intensity (max = 1)
CCTGACGTCA	FOSL1;CEBPA (Homo sapiens;Homo sapiens, UniProt P15407;P49715 96-169;273-345, |)	0.00677 relative CSI intensity (max = 1)
ATGACGTCAT	FOSL1;CEBPA (Homo sapiens;Homo sapiens, UniProt P15407;P49715 96-169;273-345, |)	0.261 relative CSI intensity (max = 1)

###

# target_or_system: ATF5;JUNB (Homo sapiens;Homo sapiens, UniProt Q9Y2D1;P17275 199-275;259-332, |)
# Sequence 1: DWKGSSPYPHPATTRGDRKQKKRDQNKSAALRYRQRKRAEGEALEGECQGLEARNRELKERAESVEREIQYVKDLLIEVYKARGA
# Sequence 2: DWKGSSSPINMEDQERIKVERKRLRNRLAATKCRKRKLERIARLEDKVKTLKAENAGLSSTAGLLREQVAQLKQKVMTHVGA
# procedure_text: SELEX-seq (CSI, HT-SELEX, round 3); SELEX-seq: 1x PBS (10 mM phosphate, 137 mM NaCl, 2.7 mM KCl) pH 7.6, 2.5 mM DTT, 50 ng/ul poly dI-dC, 0.1% BSA, 50 nM biotinylated bZIP (1:3 with partner for heterodimers), 100 nM library, room temperature, 1 h, 3 rounds; high values mean tight binding
# condition_set: protein: recombinant;recombinant; copies: 1;1; dsDNA, one strand shown
List of binding signal values.
measured_property: binding signal

residue_sequence	target_or_system	measured_property	result
ATGACGTAAT	ATF5;JUNB (Homo sapiens;Homo sapiens, UniProt Q9Y2D1;P17275 199-275;259-332, |)	binding signal	0.0445 relative CSI intensity (max = 1)
ATGACGGAAT	ATF5;JUNB (Homo sapiens;Homo sapiens, UniProt Q9Y2D1;P17275 199-275;259-332, |)	binding signal	0.00218 relative CSI intensity (max = 1)
ATGATGCAAT	ATF5;JUNB (Homo sapiens;Homo sapiens, UniProt Q9Y2D1;P17275 199-275;259-332, |)	binding signal	0.00145 relative CSI intensity (max = 1)
CCTGACGTCA	ATF5;JUNB (Homo sapiens;Homo sapiens, UniProt Q9Y2D1;P17275 199-275;259-332, |)	binding signal	0.0543 relative CSI intensity (max = 1)
